Attribution: PubChem BioAssay (NCI)

Test system: SF-268 CNS
Assay: NCI-60 one-dose screen, 48 h
Conditions: 10 µM unless noted
The panel holds about 83,000 compounds, 20% with a hit somewhere; the sample as a whole holds those more often. Calls of active or inactive are those of the source. Rule for the calls: active = growth percent below 10; inactive = the rest.
Respond only with the outcome that fits, drawn from 1 (yes) (active), 0 (no) (inactive)

Could you check what this test reported for COCCCNc1nc(NC(=O)c2ccc(F)cc2C)cc(-c2cccnc2)n1 ?
0 (no)

Could you check what this test reported for COc1ccc2nc3cc(Cl)ccc3c(N3CCN(c4ccnc(N5CCN(C)CC5)n4)CC3)c2c1 ?
0 (no)

Could you check what this test reported for CC[C@H](Nc1ncnc(N)c1C(N)=O)c1nc2cccc(NCc3ccc(C(=O)NO)cc3)c2c(=O)n1-c1ccccc1 ?
0 (no)

Could you check what this test reported for CCCCN(CCCC)CCC(C)(O)c1cc2ccccc2c2ccccc12 (stereo not given) ?
0 (no)

Could you check what this test reported for COc1ccc(-c2nc(Nc3cc(C)[nH]n3)c3ccccc3n2)cc1 ?
0 (no)

Could you check what this test reported for CCOC(=O)c1ccc2c(c1)nc(/C=C/c1ccc(Cl)cc1)n2-c1cc(C(C)(C)C)[nH]n1 ?
0 (no)

Could you check what this test reported for CSc1nc(NCCO)c(C#N)c(-c2cccc(N)c2)n1 ?
0 (no)

Could you check what this test reported for Cc1cc(=O)oc2cc(Oc3nc(-c4ccc(Cl)cc4)cn4c(-c5ccc(Cl)cc5)cnc34)ccc12 ?
0 (no)

Could you check what this test reported for CCOC(=O)c1c2c(n3ccc(NC(=O)CCN(CC)CC)cc13)C(=O)c1ncccc1C2=O ?
0 (no)

Could you check what this test reported for CC[C@@H](C)OC(=O)c1nn(C(C)=O)c2ccccc12 ?
0 (no)

Could you check what this test reported for COc1cccc(-c2cn3c(ccc4ccccc43)n2)c1 ?
0 (no)

Could you check what this test reported for COc1cnc2c(c1)C(=O)c1c-2n(CCCBr)c(=O)c2cc([N+](=O)[O-])ccc12 ?
1 (yes)

Could you check what this test reported for O=C1OC2C(I)C3CC2C1C3c1ccccc1 (stereo not given) ?
0 (no)

Could you check what this test reported for C=C1C(=O)O[C@H]2[C@H]1CC/C(Cn1cc(Cn3ccc4cc(Cl)ccc43)nn1)=C\CC[C@@]1(C)O[C@@H]21 ?
0 (no)

Could you check what this test reported for O=C(CN1CCN(c2cc3c(cc2F)c(=O)c(C(=O)N/N=C/c2ccccc2)cn3C2CC2)CC1)N/N=C\c1ccccc1 ?
0 (no)

Could you check what this test reported for O=C(CN1CCN(c2cc3c(cc2F)c(=O)c(C(=O)O)cn3C2CC2)CC1)Nc1nc(-c2ccc(Cl)cc2)cs1 ?
0 (no)

Could you check what this test reported for O=C1c2ccccc2-c2nccc3cc(Cl)nc1c23 ?
0 (no)

Could you check what this test reported for O=C(COc1cccc(/C=C2/Oc3ccccc3C2=O)c1)Nc1nccs1 ?
0 (no)

Could you check what this test reported for Oc1ccccc1/C=N/Nc1ccc2ccccc2n1 ?
0 (no)

Could you check what this test reported for C/C(Cc1ccc(Cl)cc1)=C(\c1ccc(OCCN2CCCCCC2)cc1)c1ccc(OC(=O)C2CCCCC2)cc1 ?
0 (no)
